All figures here come from a melting point compilation (Tetko et al.; mined from patent text by program, amines drawn as free bases though some values may be those of a salt).

measurement_label: melting point

1) COc1ccc(C=CC(=O)C(CCC(=O)O)(Cc2ccccc2Cl)c2ccccc2)cc1 (stereo unspecified) = 152 to 157 °C
2) O=C(O)C1=Cc2cccc(-c3ccccc3)c2OC1C(F)(F)F (stereo unspecified) = 172 to 175 °C
3) COc1ccc(CCC(=O)O)cc1C(=O)NCc1cccnc1 = 175 to 176 °C
4) Cc1ccc(CC2CCN(C(=O)C(=O)O)CC2)cc1 = 133 to 135 °C
5) CCCC(=O)c1cnc2ccc(O)cc2c1Nc1ccc(O)cc1C = 242 to 244 °C
6) CC1(C)C(Cl)(Cl)C1(Cl)C(=O)O (stereo unspecified) = 148 to 150 °C
7) CCOP(=O)(OCC)c1ccc(C(=O)O)cc1 = 101 °C
8) CC(C)S(=O)(=O)NC(=O)c1cccc(N)c1 = 190 to 193 °C
9) CC(=O)N1CCc2cc(Br)cc(C#N)c21 = 170 to 175 °C
10) CC(C)CCCc1c(-c2ccc(S(C)(=O)=O)cc2)cnn(-c2ccc(F)cc2)c1=O = 112 to 115 °C
11) CC(C)CC(NC(=O)C(Cc1ccccc1)NC(=O)C1CCCCC1C(=O)O)C(=O)O (stereo unspecified) = 84 to 122 °C
12) O=C(NC1CCCC1)c1ccc(-c2ccc3nnn(Cc4ccc5ncccc5c4)c3n2)cc1F = 166 to 168 °C
13) CC(C)C(=O)NCC(=NNC(N)=S)c1ccccc1 = 183 to 185 °C
14) CCCCCCOc1cc(C(=O)O)cc(N)c1C(=O)c1ccccc1 = 168 °C
15) COC(Cn1cncn1)(c1ccc(Cl)cc1)C(C)(C)C1CC1 (stereo unspecified) = 87 to 89 °C
16) Cc1cc(C)cc(Sc2c(C(C)C)nc(CCOC(N)=O)n2C)c1 = 138 to 140 °C
17) N#CCC(C#N)NNc1ccccc1 (stereo unspecified) = 97 to 98 °C
18) O=c1[nH]c2sccc2c2c([N+](=O)[O-])cccc12 = 255 to 258 °C
19) CCN(CC)c1nc(C(F)(F)C(F)(F)F)nn1-c1c(Cl)cc(Cl)cc1Cl = 66 to 70 °C
20) Cc1csc(-c2cccnc2)n1 = 42 to 43 °C
21) COc1ccc2c(c1OCC#N)CCCC2 = 50 to 51 °C
22) CCCCCCCCCCCCCCCCCCN(CCCCCCCCCCCCCCCCCC)c1ccc(C=Cc2ccc(S(C)(=O)=O)cc2)cc1 = 75 to 76 °C
23) COc1cc2c(cc1OC)S(=O)c1ccc(Cl)cc1C(N1CCN(C)CC1)C2 (stereo unspecified) = 178 to 179 °C
24) O=C(c1c(Cl)cccc1Cl)P(=O)(c1ccccc1)c1ccccc1 = 156 to 158 °C
25) CCCc1cc(OCc2ccc(-c3ccccc3-c3nnn(C(c4ccccc4)(c4ccccc4)c4ccccc4)n3)cc2)c(C(=O)OC)c(C)n1 = 61 to 64 °C
26) C/C(=C\Cn1oc(=O)[nH]c1=O)c1cccc(OCc2nc(-c3ccccc3)oc2C)c1 = 118 to 119 °C

---

Below, each of the compounds is paired with its reported melting point value.
measurement_label: melting point

1. CC1(C)CCC(O)(c2ccc(=O)[nH]c2)CC1 = 210 to 211 °C
2. CS(=O)(=O)O[C@H](COC(=O)CCl)[C@H](NC(=O)OCc1ccccc1)C(N)=O = 140 to 142 °C
3. COc1cc(OCC(=O)N[C@@H]2CCN(Cc3ccccc3)C2)ccc1C=NNC(=O)c1ccc(O)c(N)c1 = 157 to 160 °C
4. CC(C)OC(=O)CCC(=O)c1ccc(Cl)c(S(N)(=O)=O)c1 = 128 to 130 °C
5. Cc1cc(C)c([Si]2(c3c(C)cc(C)cc3C)C(=O)C(c3ccccc3)=C(c3ccccc3)C(=O)[Si]2(c2c(C)cc(C)cc2C)c2c(C)cc(C)cc2C)c(C)c1 = 67 to 68 °C
6. Oc1ccc2c(C3CCCCC3)nsc2c1 = 190 °C
7. CN1CCN(Nc2cc(Cl)ccc2[N+](=O)[O-])CC1 = 108 °C
